Known IC50 of a selection of molecules
- tested.system: Rac GTPase-activating protein 1 (Homo sapiens)
- Sequence (Q9H0H5 whole entry): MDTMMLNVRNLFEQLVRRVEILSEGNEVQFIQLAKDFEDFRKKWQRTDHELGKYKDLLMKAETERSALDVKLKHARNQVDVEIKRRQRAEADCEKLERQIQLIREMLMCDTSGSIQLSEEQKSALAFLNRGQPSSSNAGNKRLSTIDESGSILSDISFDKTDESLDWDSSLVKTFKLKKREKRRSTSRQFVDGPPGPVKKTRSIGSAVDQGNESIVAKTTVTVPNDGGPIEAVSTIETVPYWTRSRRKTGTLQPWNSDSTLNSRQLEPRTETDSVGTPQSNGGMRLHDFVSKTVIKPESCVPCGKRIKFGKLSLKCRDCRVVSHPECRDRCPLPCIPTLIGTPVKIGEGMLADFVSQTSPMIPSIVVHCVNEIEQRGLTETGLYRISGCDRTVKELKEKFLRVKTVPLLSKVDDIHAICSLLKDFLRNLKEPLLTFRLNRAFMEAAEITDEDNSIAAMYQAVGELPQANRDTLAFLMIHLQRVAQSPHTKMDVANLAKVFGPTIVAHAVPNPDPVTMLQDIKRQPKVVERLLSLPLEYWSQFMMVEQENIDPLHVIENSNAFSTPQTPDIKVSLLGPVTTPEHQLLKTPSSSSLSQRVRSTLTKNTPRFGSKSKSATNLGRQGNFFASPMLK
- protocol.details: blockers of MgcRacGAP-driven Rac1 GTP hydrolysis – biochemical, ADP Hunter fluorescence, primary and confirmatory, confirmation (AID 624330)
- Assay type: functional
Active and inactive are the calls of the source.

Worked cases, IC50 given:
>  <molecule>
Cc1cc(NC(=O)c2sc3ccccc3c2O)no1

>  <assay.metric>
IC50

>  <reported.measurement>
75.2 µM (active)

$$$$
>  <molecule>
Sc1nnc2ccccn12

>  <assay.metric>
IC50

>  <reported.measurement>
34 µM (active)

$$$$
>  <molecule>
Cc1ccc(NC(=O)CN2CCN(C)CC2)cc1Br

>  <assay.metric>
IC50

>  <reported.measurement>
98.5 µM (active)

$$$$
>  <molecule>
Cc1ccc(-c2cnc(NCc3cc4c(cc3[N+](=O)[O-])OCO4)n2C)cc1C

>  <assay.metric>
IC50

>  <reported.measurement>
77.6 µM (active)

$$$$
>  <molecule>
O=C(O)c1cccc(-n2sc3ccccc3c2=O)c1

>  <assay.metric>
IC50

>  <reported.measurement>
30.1 µM (active)

$$$$

[ask] IC50 for COc1ccc(N2CCN(C(=O)NC3CCCCC3)CC2)cc1 ?
[reply] 137 µM (active)

[ask] Could you do the same for CCOc1cc(/C=N/NC(=O)C(=O)N2CCCC2)ccc1O , please?
[reply] 56.3 µM (active)

[ask] Entry COc1cccc(CNc2ccc(N3CCCCC3)cc2)c1OC please
[reply] 5.96 µM (active)

[ask] // query: N#CC1=C(S)N(c2ccccc2)C(c2ccc(-c3cccc(Cl)c3)o2)NC1=O (stereo unspecified)
[reply] 181 µM (active)

[ask] Query c1ccc(CN2CCN(CCOCCOc3ccc4c(c3)CCC4)CC2)cc1 next
[reply] 53.6 µM (active)

[ask] Entry COc1cc(/C=N/N(C)c2ccccc2)cc(Cl)c1O please
[reply] 38.2 µM (active)

###

- tested.system: Cytochrome P450 3A4 (Homo sapiens);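 note: confirmatory qHTS run detecting inhibitors and substrates of CYP3A4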
- Sequence (P08684 whole entry): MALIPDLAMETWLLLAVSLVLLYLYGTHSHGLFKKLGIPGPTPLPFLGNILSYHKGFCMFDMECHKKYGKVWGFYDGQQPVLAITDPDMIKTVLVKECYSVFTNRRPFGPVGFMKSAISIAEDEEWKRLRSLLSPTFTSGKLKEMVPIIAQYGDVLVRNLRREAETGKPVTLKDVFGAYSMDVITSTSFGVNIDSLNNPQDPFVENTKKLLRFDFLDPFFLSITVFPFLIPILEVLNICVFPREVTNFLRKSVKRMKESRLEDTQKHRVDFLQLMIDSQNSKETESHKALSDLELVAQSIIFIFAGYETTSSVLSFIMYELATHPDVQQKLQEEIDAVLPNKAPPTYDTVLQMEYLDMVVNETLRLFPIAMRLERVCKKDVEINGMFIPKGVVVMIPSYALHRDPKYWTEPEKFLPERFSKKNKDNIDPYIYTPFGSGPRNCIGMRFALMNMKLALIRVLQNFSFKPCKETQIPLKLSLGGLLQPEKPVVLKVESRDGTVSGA
- run.parameters: Potency
assay.metric: AC50

>  <compound.smiles>
COc1ccc(/C=C/C(=O)Nc2ccccc2C(=O)O)cc1OC

>  <AC50>
10 µM (inconclusive)

$$$$
>  <compound.smiles>
COc1ccc(C(=O)Nc2ccccc2)cc1[N+](=O)[O-]

>  <AC50>
15.8 µM (inconclusive)

$$$$
>  <compound.smiles>
O=C(/C=C/c1ccc(O)c(O)c1)OCCc1ccccc1

>  <AC50>
31.6 µM (inconclusive)

$$$$

Now for a further compound.
[ask] Record request: AC50 value, item O=c1c(O)c(-c2cc(O)c(O)c(O)c2)oc2cc(O)cc(O)c12
[reply] 25.1 µM (inconclusive)

###

- Test system: BJ
- protocol.details: cells
- Format: functional, cell-based
- run.parameters: Homo sapiens
Active and inactive are the calls of the source.
Each entry below lists one item and its recorded EC50 value.

>  <compound>
O=C(COc1ccc([N+](=O)[O-])cc1)Nc1ccc(C(=O)NCc2cccnc2)cc1

>  <EC50>
12.8 µM (inconclusive)

$$$$

[ask] Lab request: please report EC50 under test system BJ for O=C(c1ccccc1-c1ccccc1)N1CCN(c2ccccn2)CC1
[reply] 19.9 µM (active)

[ask] Record: CN(C)CCCn1cnc2c(c1=N)C(c1ccccc1)c1ccc3ccccc3c1O2 (centres undefined)
[reply] 8.21 µM (active)

[ask] Same for Oc1c(Cl)cc(CN2CCCCC2)c2cccnc12
[reply] 25.9 µM (inconclusive)
